Molecular target: Serotonin (5-Hydroxytryptamine) 5-HT1B (Rattus norvegicus, UniProt P28564)
Construct: from tissue
Sequence (P28564 whole entry): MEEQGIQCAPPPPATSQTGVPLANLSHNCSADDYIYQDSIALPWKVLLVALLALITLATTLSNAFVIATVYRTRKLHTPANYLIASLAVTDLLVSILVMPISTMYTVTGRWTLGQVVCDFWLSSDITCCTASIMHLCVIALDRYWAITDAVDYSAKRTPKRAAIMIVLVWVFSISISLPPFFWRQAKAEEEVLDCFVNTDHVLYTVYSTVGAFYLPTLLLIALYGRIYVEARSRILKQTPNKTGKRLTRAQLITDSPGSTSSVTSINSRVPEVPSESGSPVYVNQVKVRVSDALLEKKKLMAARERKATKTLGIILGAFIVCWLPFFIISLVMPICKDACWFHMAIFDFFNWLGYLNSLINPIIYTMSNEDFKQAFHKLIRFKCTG
Experiment: Assay 271200 radioligand binding, 5-HT1B
Set-up: species or system Wistar Rat
Details: 0.1 μM
Method: The methods employed in this study have been adapted from the scientific literature to maximize reliability and reproducibility. Reference standards were run as an integral part of each assay to ensure the validity of the results obtained. Assays were performed under conditions as described below. Where presented, IC50 values were determined by a non-linear, least squares regression analysis using the Data Analysis Toolbox (MDL Information Systems, San Leandro, Calif., USA). […]

inputSmiles	unitSpec	% INHIBITION
NCCN1CCN(CCCCN2c3ccccc3Sc3ccc(C(F)(F)F)cc32)CC1	%	7
NCC(=O)NCCN1CCN(CCCCN2c3ccccc3Sc3ccc(C(F)(F)F)cc32)CC1	%	4
FC(F)(F)c1ccc2c(c1)N(CCC1CCNCC1)c1ccccc1S2	%	8
NCCN1CCC(CCN2c3ccccc3Sc3ccc(C(F)(F)F)cc32)CC1	%	−3

====

target: Serotonin (5-Hydroxytryptamine) 5-HT1B (Rattus norvegicus); construct: from tissue; assay: Assay 271200 radioligand binding, 5-HT1B; parameters: species or system Wistar Rat; conditions: 10 μM
We begin with a simple list: items and their reported % INHIBITION.

inputSmiles	% INHIBITION, %
NCCN1CCC(CCN2c3ccccc3Sc3ccc(C(F)(F)F)cc32)CC1	0
NCC(=O)NCCN1CCN(CCCCN2c3ccccc3Sc3ccc(C(F)(F)F)cc32)CC1	−1
NCCN1CCN(CCCCN2c3ccccc3Sc3ccc(C(F)(F)F)cc32)CC1	2
FC(F)(F)c1ccc2c(c1)N(CCC1CCNCC1)c1ccccc1S2	48

====

We begin with a simple list: items and their reported fold induction at 48 h, 1 µM.
test: Phospholipidosis assay (LipidTox); type: cell-based; conditions: human

molecule	fold induction at 48 h, 1 µM
O=CNCC(=O)NCCN1CCN(CCCN2c3ccccc3Sc3ccc(C(F)(F)F)cc32)CC1 [Compound 37b]	1
NCC(=O)NCCN1CCN(CCCN2c3ccccc3Sc3ccc(C(F)(F)F)cc32)CC1	23

====

system: Serotonin (5-Hydroxytryptamine) 5-HT1, Non-Selective; assay: Assay 271000 radioligand binding, 5-HT1 non-selective; set-up: species or system Wistar Rat; conditions: 0.1 μM

molecule	% INHIBITION (%)
FC(F)(F)c1ccc2c(c1)N(CCC1CCNCC1)c1ccccc1S2 [ICI-1007]	−12
CNCC(=O)NCCN1CCC(CCCN2c3ccccc3Sc3ccc(C(F)(F)F)cc32)CC1 [ICI-849]	−2
CN(C)S(=O)(=O)c1ccc2c(c1)N(CCCN1CCN(CCN)CC1)c1ccccc1S2 [ICI-715]	15
FC(F)(F)c1ccc2c(c1)N(CCCN1CCNCC1)c1ccccc1S2 [ICI-685]	−3
NCCN1CCN(CCCCN2c3ccccc3Sc3ccc(C(F)(F)F)cc32)CC1 [ICI-953]	−10

====

Assay: Phospholipidosis assay (LipidTox)
Type: cell-based
Conditions: human
Method: More recently, fluorescent dyes have been utilized to assess phospholipidosis in a high throughput manner (Nioi et al., 2007, Toxicol. Sci. 99:162-173). In this assay, HepG2 cells are plated in MEM growth medium and allowed to incubate overnight. […] Plates are scanned with an automated fluorescent microscope (Thermo Fisher Cellomics ArrayScan 4.5) and image analysis is used to quantitate cell number and phospholipid accumulation. […] where RFU=Relative Fluorescence Unit
We begin with a simple list: items and their reported cytotoxicity at 48 h, 1 µM.
measuredQuantity: cytotoxicity at 48 h, 1 µM (%)

molecule	measuredQuantity	result
NCC(=O)NCCN1CCN(CCCN2c3ccccc3Sc3ccc(C(F)(F)F)cc32)CC1	cytotoxicity at 48 h, 1 µM	0
O=CNCC(=O)NCCN1CCN(CCCN2c3ccccc3Sc3ccc(C(F)(F)F)cc32)CC1 [Compound 37b]	cytotoxicity at 48 h, 1 µM	32
